test system: 885512-296-R-J2-PDC complex spheroid growth, % test/control; test: Anticancer human tumor 885512-296-R-J2-PDC patient-derived breast carcinoma cell line growth inhibition [AhR]; conditions: second compound 1 µM; first compound 0.001 µM; hits give low values;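 note: spheroids exposed to compounds for seven days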
Result Type: viability, T/C (%)
Return type: number; implicit unit %.

Compound	Unit Tag	viability, T/C
CC[C@@]1(O)C(=O)OCc2c1cc1n(c2=O)Cc2cc3c(CN(C)C)c(O)ccc3nc2-1 + Cc1ccccc1N=Nc1ccc(NC(=O)c2ccnn2C)c(C)c1	%	111
Cn1ncnc1C1c2n[nH]c(=O)c3cc(F)cc(c23)NC1c1ccc(F)cc1 (stereo unspecified) + Cc1ccccc1N=Nc1ccc(NC(=O)c2ccnn2C)c(C)c1	%	82.9
Cn1ncnc1C1c2n[nH]c(=O)c3cc(F)cc(c23)NC1c1ccc(F)cc1 (stereo unspecified) + CC(CO)NC(=O)c1cc(-c2ccc(Cl)cc2)nn(-c2cnn(C)c2)c1=O	%	96.4
CC[C@@]1(O)C(=O)OCc2c1cc1n(c2=O)Cc2cc3c(CN(C)C)c(O)ccc3nc2-1 + CC(CO)NC(=O)c1cc(-c2ccc(Cl)cc2)nn(-c2cnn(C)c2)c1=O	%	107
CC[C@@]1(O)C(=O)OCc2c1cc1n(c2=O)Cc2cc3c(CN(C)C)c(O)ccc3nc2-1 + Cc1cncc(-c2nc(NCCc3c[nH]c4ccccc34)c3ncn(C(C)C)c3n2)c1	%	82.2

Read the next record carefully.
Ask | Suppose we examine the compound Cn1ncnc1C1c2n[nH]c(=O)c3cc(F)cc(c23)NC1c1ccc(F)cc1 (stereo unspecified) + Cc1cncc(-c2nc(NCCc3c[nH]c4ccccc34)c3ncn(C(C)C)c3n2)c1 ; what viability, T/C value has been reported?
Reply | 99.5
